Reference source: the supplement of paper PMC10567573

Quick reference for protein stability index among some variants
B1: SOAT2 (parent)
chain: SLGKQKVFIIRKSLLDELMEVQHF

variants of: B1; assay: protein stability index of a GFP-peptide fusion (GPS, HEK-293T) (PSI 1-6); higher = more stable; details: c terminus: a fixed tail appended;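 further: lentivirally expressed fusions sorted by FACS into six bins by GFP to DsRed ratio, PSI derived from sequencing read proportions per bin multiplied by bin number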
measurement name: protein stability index

INSERT INTO assay_data (var, measurement_name, meas_value) VALUES
  ('F8K', 'protein stability index', 1.88),
  ('V21M', 'protein stability index', 1.89),
  ('E20Y', 'protein stability index', 2.9),
  ('V7K', 'protein stability index', 2),
  ('L18H', 'protein stability index', 1.85),
  ('E17H', 'protein stability index', 4.16),
  ('F8C', 'protein stability index', 2.49),
  ('S1Y', 'protein stability index', 1.34),
  ('Q5T', 'protein stability index', 2.23),
  ('R11W', 'protein stability index', 2.53),
  ('K6A', 'protein stability index', 2.08),
  ('L2D', 'protein stability index', 1.4),
  ('Q5Y', 'protein stability index', 1.85),
  ('R11L', 'protein stability index', 2.96),
  ('R11Y', 'protein stability index', 3.21),
  ('H23P', 'protein stability index', 2.65),
  ('L18E', 'protein stability index', 1.8),
  ('F8N', 'protein stability index', 1.5),
  ('L18A', 'protein stability index', 1.46),
  ('Q22S', 'protein stability index', 1.68),
  ('D16M', 'protein stability index', 3.67),
  ('K4C', 'protein stability index', 2.88);
